test system: BT-20 (Breast Carcinoma); assay: combination Emax (second highest fraction inhibited in the dose matrix, 72 h); higher = more inhibition; extreme values may be limits of the assay
# cutoff 0.8 applies to combination Emax; >= gives yes (1), < gives no (0)

Molecule	Class
CN(CCO)CC[C@H](CSc1ccccc1)Nc1ccc(S(=O)(=O)NC(=O)c2ccc(N3CCC([C@@H](O)c4ccccc4-c4ccc(Cl)cc4)CC3)cc2)cc1S(=O)(=O)C(F)(F)F [AZD4320] + CCN(CCO)CCCOc1ccc2c(Nc3cc(CC(=O)Nc4cccc(F)c4)[nH]n3)ncnc2c1 [AZD2811] (first compound max 1 µM, 7x7, partner max 1 µM)	no (0)
COc1nnc2ccc(N3CCC(c4ccc(OCCN5CCN(C)C(=O)[C@H]5C)cc4)CC3)nn12 [AZD5153] + CCN(CCO)CCCOc1ccc2c(Nc3cc(CC(=O)Nc4cccc(F)c4)[nH]n3)ncnc2c1 [AZD2811] (first compound max 1 µM, 7x7, partner max 1 µM)	no (0)
COc1cccc2c1C(=O)c1c(O)c3c(c(O)c1C2=O)C[C@@](O)(C(=O)CO)C[C@@H]3O[C@H]1C[C@H](N)[C@H](O)[C@H](C)O1 [Doxorubicin] + Cc1cc2ncnn2cc1Nc1ncc2c(n1)n(C1CCOCC1)c(=O)n2C [AZD7648] (first compound max 1 µM, 7x7, partner max 10 µM)	no (0)

Now examine the next entry.
Task: Would you say COc1cccc(OCCCN)c1-c1cc(Nc2cnc(C#N)cn2)n[nH]1 [Prexasertib] + CCc1c2c(nc3ccc(O)cc13)-c1cc3c(c(=O)n1C2)COC(=O)[C@]3(O)CC [SN-38] (first compound max 1 µM, 7x7, partner max 0.3 µM) shows combination Emax at minimum 0.8?
Result: yes (1)

* * *

Catalogue of combination Emax values
test system: GI-1 (Glioblastoma); assay: combination Emax (second highest fraction inhibited in the dose matrix, 72 h); higher = more inhibition; extreme values may be limits of the assay
Just the number, please, no unit after it.

Worked examples follow.
Molecule	Experimental Target	combination Emax
CC1(C)CCC(CN2CCN(c3ccc(C(=O)NS(=O)(=O)c4ccc(NCC5CCOCC5)c([N+](=O)[O-])c4)c(Oc4cnc5[nH]ccc5c4)c3)CC2)=C(c2ccc(Cl)cc2)C1 [Venetoclax] + Cc1cc2ncnn2cc1Nc1ncc2c(n1)n(C1CCOCC1)c(=O)n2C [AZD7648] (first compound max 1 µM, 7x7, partner max 10 µM)	GI-1 (Glioblastoma)	0.238
Cc1c2c(nn1C)CSCc1cc(n(C)n1)CSc1cc(c3ccccc3c1)OCCCc1c(C(=O)O)n(C)c3c-2c(Cl)ccc13 [AZD5991] + CC1(C)CCC(CN2CCN(c3ccc(C(=O)NS(=O)(=O)c4ccc(NCC5CCOCC5)c([N+](=O)[O-])c4)c(Oc4cnc5[nH]ccc5c4)c3)CC2)=C(c2ccc(Cl)cc2)C1 [Venetoclax] (first compound max 1 µM, 7x7, partner max 1 µM)	GI-1 (Glioblastoma)	0.954
Cc1cc2ncnn2cc1Nc1ncc2c(n1)n(C1CCOCC1)c(=O)n2C [AZD7648] + C=CCn1c(=O)c2cnc(Nc3ccc(N4CCN(C)CC4)cc3)nc2n1-c1cccc(C(C)(C)O)n1 [AZD1775] (first compound max 10 µM, partner max 1 µM)	GI-1 (Glioblastoma)	0.86
Cc1c2c(nn1C)CSCc1cc(n(C)n1)CSc1cc(c3ccccc3c1)OCCCc1c(C(=O)O)n(C)c3c-2c(Cl)ccc13 [AZD5991] + C1CN(CCC1(C(=O)N[C@@H](CCO)C2=CC=C(C=C2)Cl)N)C3=NC=NC4=C3C=CN4 [Capivasertib] (first compound max 1 µM, 7x7, partner max 3 µM)	GI-1 (Glioblastoma)	0.949
CN(C)CCCOc1ccc(-c2ccc3ncc4c(c3c2)n(C2CCOCC2)c(=O)n4C)cn1 [AZD0156] + C[C@@H]1COCCN1C2=NC(=NC(=C2)C3(CC3)[S@](=N)(=O)C)C4=C5C=CNC5=NC=C4 [AZD6738] (first compound max 1 µM, 7x7, partner max 10 µM)	GI-1 (Glioblastoma)	0.926

Task: What value of combination Emax has been reported for the following molecule? CN(C)CCCOc1ccc(-c2ccc3ncc4c(c3c2)n(C2CCOCC2)c(=O)n4C)cn1 [AZD0156] + O=C(c1cc(Cc2n[nH]c(=O)c3ccccc23)ccc1F)N1CCN(C(=O)C2CC2)CC1 [Olaparib] (first compound max 3 µM, partner max 3 µM)
Result: 0.336

Task: Also need N#Cc1cnc(Nc2cc(NC[C@H]3CNCCO3)c(C(F)(F)F)cn2)cn1 [SRA737] + CCc1c2c(nc3ccc(O)cc13)-c1cc3c(c(=O)n1C2)COC(=O)[C@]3(O)CC [SN-38] (first compound max 10 µM, 7x7, partner max 0.3 µM) , thanks.
Result: 0.973

Task: Moving on to the next molecule: NC1(C(=O)N[C@@H](CCO)c2ccc(Cl)cc2)CCN(c2ncnc3[nH]ccc23)CC1 [Capivasertib] + COc1nnc2ccc(N3CCC(c4ccc(OCCN5CCN(C)C(=O)[C@H]5C)cc4)CC3)nn12 [AZD5153] (first compound max 10 µM, 7x7, partner max 1 µM)
Result: 0.915

Task: Could you do the same for CN(CCO)CC[C@H](CSc1ccccc1)Nc1ccc(S(=O)(=O)NC(=O)c2ccc(N3CCC([C@@H](O)c4ccccc4-c4ccc(Cl)cc4)CC3)cc2)cc1S(=O)(=O)C(F)(F)F [AZD4320] + C=CCn1c(=O)c2cnc(Nc3ccc(N4CCN(C)CC4)cc3)nc2n1-c1cccc(C(C)(C)O)n1 [AZD1775] (first compound max 1 µM, partner max 1 µM) , please?
Result: 1

Task: # iterate: Cc1cc2ncnn2cc1Nc1ncc2c(n1)n(C1CCOCC1)c(=O)n2C [AZD7648] + COc1cc([C@@H]2c3cc4c(cc3[C@@H](O[C@@H]3O[C@@H]5CO[C@@H](C)O[C@H]5[C@H](O)[C@H]3O)[C@H]3COC(=O)[C@H]23)OCO4)cc(OC)c1O [Etoposide] (first compound max 10 µM, 7x7, partner max 10 µM)
Result: 0.907

Task: // query: Cn1cnc2c(F)c(Nc3ccc(Br)cc3Cl)c(C(=O)NOCCO)cc21 [Selumetinib] + CC(C)n1c(=O)n(C)c2cnc3cc(F)c(-c4ccc(OCCCN5CCCCC5)nc4)cc3c21 [AZD1390] (first compound max 10 µM, 7x7, partner max 0.3 µM)
Result: 0.216

Task: What do we get for CCc1c2c(nc3ccc(O)cc13)-c1cc3c(c(=O)n1C2)COC(=O)[C@]3(O)CC [SN-38] + O=C(c1cc(Cc2n[nH]c(=O)c3ccccc23)ccc1F)N1CCN(C(=O)C2CC2)CC1 [Olaparib] (first compound max 0.3 µM, 7x7, partner max 10 µM) ?
Result: 0.954

Task: Now consider Cc1c2c(nn1C)CSCc1cc(n(C)n1)CSc1cc(c3ccccc3c1)OCCCc1c(C(=O)O)n(C)c3c-2c(Cl)ccc13 [AZD5991] + Nc1ccn([C@@H]2O[C@H](CO)[C@@H](O)C2(F)F)c(=O)n1 [Gemcitabine] (first compound max 1 µM, 7x7, partner max 0.3 µM) .
Result: 0.86

* * *

tested on: EMC-BAC-2 (Non-Small Cell Lung Carcinoma); assay: Bliss excess, mean over the matrix (fraction); higher = more synergy;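 further: after 72 h of two-drug dosing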
// reported Bliss excess for each item listed
Lab note: record just the number, no unit beside it.

Task: Name the reported Bliss excess value associated with the compound C[C@@H](c1ccc2nccn2c1)n1nnc2ncc(-c3cnn(C)c3)nc21 [Savolitinib] + Cc1c2c(nn1C)CSCc1cc(n(C)n1)CSc1cc(c3ccccc3c1)OCCCc1c(C(=O)O)n(C)c3c-2c(Cl)ccc13 [AZD5991] (first compound max 1 µM, 7x7, partner max 1 µM)
Result: -0.0767

* * *

The following compounds are listed with their measured combination Emax values.
tested on: HuP-T3 (Pancreatic Carcinoma); experiment: combination Emax (second highest fraction inhibited in the dose matrix, 72 h); higher = more inhibition; extreme values may be limits of the assay
Keep the answer to the number alone.

Past entries and their recorded results:
Compound	combination Emax
C[C@@H](c1ccc2nccn2c1)n1nnc2ncc(-c3cnn(C)c3)nc21 [Savolitinib] + Cc1c2c(nn1C)CSCc1cc(n(C)n1)CSc1cc(c3ccccc3c1)OCCCc1c(C(=O)O)n(C)c3c-2c(Cl)ccc13 [AZD5991] (first compound max 1 µM, 7x7, partner max 1 µM)	0.189
Cc1c2c(nn1C)CSCc1cc(n(C)n1)CSc1cc(c3ccccc3c1)OCCCc1c(C(=O)O)n(C)c3c-2c(Cl)ccc13 [AZD5991] + CN(C)CCCOc1ccc(-c2ccc3ncc4c(c3c2)n(C2CCOCC2)c(=O)n4C)cn1 [AZD0156] (first compound max 1 µM, 7x7, partner max 1 µM)	0.213
COc1cc2ncnc(Nc3ccc(F)c(Cl)c3)c2cc1OCCCN1CCOCC1 [Gefitinib] + CC(C)n1c(=O)n(C)c2cnc3cc(F)c(-c4ccc(OCCCN5CCCCC5)nc4)cc3c21 [AZD1390] (first compound max 10 µM, 7x7, partner max 0.3 µM)	0.14

// next item, combination Emax requested
Task: What combination Emax value was documented for this compound, COc1cccc(OCCCN)c1-c1cc(Nc2cnc(C#N)cn2)n[nH]1 [Prexasertib] + O=C(c1cc(Cc2n[nH]c(=O)c3ccccc23)ccc1F)N1CCN(C(=O)C2CC2)CC1 [Olaparib] (first compound max 1 µM, 7x7, partner max 10 µM) ?
Result: 0.695
